# study system: Rho-associated protein kinase 2 (Homo sapiens) (UniProt O75116)
# Sequence (O75116 whole entry, looked up): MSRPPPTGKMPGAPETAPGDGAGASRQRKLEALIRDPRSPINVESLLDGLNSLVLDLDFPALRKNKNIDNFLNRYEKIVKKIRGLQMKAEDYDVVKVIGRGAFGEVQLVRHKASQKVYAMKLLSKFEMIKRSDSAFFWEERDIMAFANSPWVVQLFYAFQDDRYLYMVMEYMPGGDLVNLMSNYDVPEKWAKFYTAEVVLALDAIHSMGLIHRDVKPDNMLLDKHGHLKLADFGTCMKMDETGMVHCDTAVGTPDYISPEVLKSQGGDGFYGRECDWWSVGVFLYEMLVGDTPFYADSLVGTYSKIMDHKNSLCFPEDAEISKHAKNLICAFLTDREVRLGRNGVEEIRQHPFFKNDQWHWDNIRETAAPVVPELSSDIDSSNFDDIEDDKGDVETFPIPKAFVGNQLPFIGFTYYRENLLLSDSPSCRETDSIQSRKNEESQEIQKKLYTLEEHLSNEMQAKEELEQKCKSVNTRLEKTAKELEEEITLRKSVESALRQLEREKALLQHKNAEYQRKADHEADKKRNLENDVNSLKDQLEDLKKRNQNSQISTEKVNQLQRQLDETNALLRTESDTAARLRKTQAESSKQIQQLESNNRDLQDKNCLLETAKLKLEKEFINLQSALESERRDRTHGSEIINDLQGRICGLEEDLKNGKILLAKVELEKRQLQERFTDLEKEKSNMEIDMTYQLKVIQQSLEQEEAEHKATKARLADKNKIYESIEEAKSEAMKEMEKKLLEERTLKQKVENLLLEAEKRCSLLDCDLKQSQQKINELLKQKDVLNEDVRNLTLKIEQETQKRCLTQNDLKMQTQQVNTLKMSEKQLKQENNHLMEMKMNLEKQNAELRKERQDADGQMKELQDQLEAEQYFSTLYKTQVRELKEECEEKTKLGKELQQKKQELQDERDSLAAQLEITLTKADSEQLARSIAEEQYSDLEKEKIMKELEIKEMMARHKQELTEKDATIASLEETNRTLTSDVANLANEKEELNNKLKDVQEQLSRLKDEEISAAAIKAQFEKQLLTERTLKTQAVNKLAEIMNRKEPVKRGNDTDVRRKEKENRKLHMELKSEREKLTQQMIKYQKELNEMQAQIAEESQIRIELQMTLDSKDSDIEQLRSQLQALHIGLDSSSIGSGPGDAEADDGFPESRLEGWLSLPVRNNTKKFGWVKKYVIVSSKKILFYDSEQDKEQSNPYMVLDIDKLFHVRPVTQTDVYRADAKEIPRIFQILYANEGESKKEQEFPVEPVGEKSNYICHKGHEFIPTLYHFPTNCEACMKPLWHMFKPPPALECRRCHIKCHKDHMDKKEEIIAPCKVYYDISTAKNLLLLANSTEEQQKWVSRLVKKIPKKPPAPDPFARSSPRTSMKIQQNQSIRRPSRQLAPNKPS
# condition parameters: at 1 µM
# Description: GSK_PKIS: ROCK2 mean inhibition at 1 uM [Nanosyn]
Below, each entry is listed with its recorded inhibition.
observation type: inhibition (%)

structure	observation type	measured
Cc1ccc(NC(=O)CC2CC2)cc1-c1ccc(C(=O)NCC2CC2)cc1	inhibition	5.25
COC(=O)c1ccc2c(c1)C(=Cc1cc(Br)c(O)c(Br)c1)C(=O)N2	inhibition	3.89
NS(=O)(=O)c1cccc(Nc2cc(-c3ccc(F)cc3)n[nH]2)c1	inhibition	8.75
NS(=O)(=O)c1ccc(Nc2cc(-c3cccc(O)c3)n[nH]2)cc1	inhibition	4.85
COc1cc(Nc2nccc(-c3cnn4ncccc34)n2)cc(OC)c1	inhibition	15
Cc1cc(O)cc(C)c1/C=C/c1cncc(C(=O)N(C)C)c1	inhibition	3.8
Cc1ccc(C(=O)NC2CC2)cc1-c1ccc2[nH]ncc2c1	inhibition	16.1
ON=C1CCc2cc(-c3nc(C4CCNCC4)[nH]c3-c3ccncc3)ccc21	inhibition	-0.29
CN1CCN(C(=O)c2ccc(NC(=O)Nc3ccc(N(C)c4ccnc(Nc5ccc(CS(C)(=O)=O)cc5)n4)cc3)cc2)CC1	inhibition	52
COc1ccc(-c2nn3ncccc3c2-c2ccnc(Nc3cccc(C(F)(F)F)c3)n2)cc1	inhibition	1.41

FYI, the data here is from ChEMBL document CHEMBL1961873.
